tested on: TGBC11TKB (Gastric Carcinoma); assay: Bliss excess, mean over the matrix (fraction); higher = more synergy;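 further: after 72 h of two-drug dosing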
Would you please tag the item condition met when its Bliss excess is -0.003 or above, and condition not met when it is below?

Record excerpt, results attached:
compound="COc1nnc2ccc(N3CCC(c4ccc(OCCN5CCN(C)C(=O)[C@H]5C)cc4)CC3)nn12 [AZD5153] + CCN(CCO)CCCOc1ccc2c(Nc3cc(CC(=O)Nc4cccc(F)c4)[nH]n3)ncnc2c1 [AZD2811] (first compound max 1 µM, 7x7, partner max 1 µM)" class="condition not met"
compound="C[C@@H](c1ccc2nccn2c1)n1nnc2ncc(-c3cnn(C)c3)nc21 [Savolitinib] + Cc1c2c(nn1C)CSCc1cc(n(C)n1)CSc1cc(c3ccccc3c1)OCCCc1c(C(=O)O)n(C)c3c-2c(Cl)ccc13 [AZD5991] (first compound max 1 µM, 7x7, partner max 1 µM)" class="condition not met"
compound="CN(CCO)CC[C@H](CSc1ccccc1)Nc1ccc(S(=O)(=O)NC(=O)c2ccc(N3CCC([C@@H](O)c4ccccc4-c4ccc(Cl)cc4)CC3)cc2)cc1S(=O)(=O)C(F)(F)F [AZD4320] + CN(C)CCCOc1ccc(-c2ccc3ncc4c(c3c2)n(C2CCOCC2)c(=O)n4C)cn1 [AZD0156] (first compound max 1 µM, 7x7, partner max 1 µM)" class="condition not met"
compound="NC1(C(=O)N[C@@H](CCO)c2ccc(Cl)cc2)CCN(c2ncnc3[nH]ccc23)CC1 [Capivasertib] + CC(=O)c1c(C)c2cnc(Nc3ccc(N4CCNCC4)cn3)nc2n(C2CCCC2)c1=O [Palbociclib] (first compound max 10 µM, 7x7, partner max 10 µM)" class="condition not met"
compound="Cc1c2c(nn1C)CSCc1cc(n(C)n1)CSc1cc(c3ccccc3c1)OCCCc1c(C(=O)O)n(C)c3c-2c(Cl)ccc13 [AZD5991] + C[C@@H](Nc1cc(F)cc(F)c1)c1cc(C(=O)N(C)C)cc2c(=O)cc(N3CCOCC3)oc12 [AZD8186] (first compound max 1 µM, 7x7, partner max 3 µM)" class="condition met"

Request: Reported Bliss excess reaches at least -0.003 for COc1nnc2ccc(N3CCC(c4ccc(OCCN5CCN(C)C(=O)[C@H]5C)cc4)CC3)nn12 [AZD5153] + C[C@@H]1COCCN1C2=NC(=NC(=C2)C3(CC3)[S@](=N)(=O)C)C4=C5C=CNC5=NC=C4 [AZD6738] (first compound max 1 µM, 7x7, partner max 10 µM) ?
Result: condition not met

Request: Entry CN(CCO)CC[C@H](CSc1ccccc1)Nc1ccc(S(=O)(=O)NC(=O)c2ccc(N3CCC([C@@H](O)c4ccccc4-c4ccc(Cl)cc4)CC3)cc2)cc1S(=O)(=O)C(F)(F)F [AZD4320] + C[C@@H]1COCCN1C2=NC(=NC(=C2)C3(CC3)[S@](=N)(=O)C)C4=C5C=CNC5=NC=C4 [AZD6738] (first compound max 1 µM, 7x7, partner max 10 µM) : is its Bliss excess no less than -0.003?
Result: condition met

Request: hey, is Bliss excess for this one >= -0.003? COc1nnc2ccc(N3CCC(c4ccc(OCCN5CCN(C)C(=O)[C@H]5C)cc4)CC3)nn12 [AZD5153] + Cn1cnc2c(F)c(Nc3ccc(Br)cc3Cl)c(C(=O)NOCCO)cc21 [Selumetinib] (first compound max 1 µM, 7x7, partner max 10 µM)
Result: condition met

Request: Hi team, for O=C(c1cc(Cc2n[nH]c(=O)c3ccccc23)ccc1F)N1CCN(C(=O)C2CC2)CC1 [Olaparib] + CC1(C)CCC(CN2CCN(c3ccc(C(=O)NS(=O)(=O)c4ccc(NCC5CCOCC5)c([N+](=O)[O-])c4)c(Oc4cnc5[nH]ccc5c4)c3)CC2)=C(c2ccc(Cl)cc2)C1 [Venetoclax] (first compound max 10 µM, 7x7, partner max 1 µM) , is the recorded Bliss excess at or above -0.003?
Result: condition not met

Request: Evaluate CN(CCO)CC[C@H](CSc1ccccc1)Nc1ccc(S(=O)(=O)NC(=O)c2ccc(N3CCC([C@@H](O)c4ccccc4-c4ccc(Cl)cc4)CC3)cc2)cc1S(=O)(=O)C(F)(F)F [AZD4320] + C[C@@H](Nc1cc(F)cc(F)c1)c1cc(C(=O)N(C)C)cc2c(=O)cc(N3CCOCC3)oc12 [AZD8186] (first compound max 1 µM, 7x7, partner max 3 µM) : Bliss excess at minimum -0.003?
Result: condition not met

###

system: SCC-9 (Oral Cavity Carcinoma); assay: Bliss excess, mean over the matrix (fraction); higher = more synergy
observation.type: Bliss excess
Lab note: jot the number down without any unit.

molecule="Cc1cc2ncnn2cc1Nc1ncc2c(n1)n(C1CCOCC1)c(=O)n2C [AZD7648] + CCN(CCO)CCCOc1ccc2c(Nc3cc(CC(=O)Nc4cccc(F)c4)[nH]n3)ncnc2c1 [AZD2811] (first compound max 10 µM, 7x7, partner max 1 µM)" system="SCC-9 (Oral Cavity Carcinoma)" observed_value=0.0414
molecule="Cn1cnc2c(F)c(Nc3ccc(Br)cc3Cl)c(C(=O)NOCCO)cc21 [Selumetinib] + CCN(CCO)CCCOc1ccc2c(Nc3cc(CC(=O)Nc4cccc(F)c4)[nH]n3)ncnc2c1 [AZD2811] (first compound max 10 µM, 7x7, partner max 1 µM)" system="SCC-9 (Oral Cavity Carcinoma)" observed_value=0.0722
molecule="CN(C)CCCOc1ccc(-c2ccc3ncc4c(c3c2)n(C2CCOCC2)c(=O)n4C)cn1 [AZD0156] + O=C(c1cc(Cc2n[nH]c(=O)c3ccccc23)ccc1F)N1CCN(C(=O)C2CC2)CC1 [Olaparib] (first compound max 3 µM, partner max 3 µM)" system="SCC-9 (Oral Cavity Carcinoma)" observed_value=0.0741
molecule="CC1(C)CCC(CN2CCN(c3ccc(C(=O)NS(=O)(=O)c4ccc(NCC5CCOCC5)c([N+](=O)[O-])c4)c(Oc4cnc5[nH]ccc5c4)c3)CC2)=C(c2ccc(Cl)cc2)C1 [Venetoclax] + COc1cc(Nc2ncc3c(n2)-c2ccc(Cl)cc2C(c2c(F)cccc2OC)=NC3)ccc1C(=O)O [Alisertib] (first compound max 1 µM, 7x7, partner max 10 µM)" system="SCC-9 (Oral Cavity Carcinoma)" observed_value=-0.0571
molecule="C[C@@H]1COCCN1c1cc(C2([S@](C)(=N)=O)CC2)nc(-c2ccnc3[nH]ccc23)n1 [AZD6738] + C1CC(C1)(C(=O)[O-])C(=O)[O-].N.N.[Pt+2] [Carboplatin] (first compound max 10 µM, 7x7, partner max 10 µM)" system="SCC-9 (Oral Cavity Carcinoma)" observed_value=-0.0334
molecule="CC(=O)c1c(C)c2cnc(Nc3ccc(N4CCNCC4)cn3)nc2n(C2CCCC2)c1=O [Palbociclib] + Cn1cnc2c(F)c(Nc3ccc(Br)cc3Cl)c(C(=O)NOCCO)cc21 [Selumetinib] (first compound max 10 µM, 7x7, partner max 10 µM)" system="SCC-9 (Oral Cavity Carcinoma)" observed_value=0.0811
molecule="COc1nnc2ccc(N3CCC(c4ccc(OCCN5CCN(C)C(=O)[C@H]5C)cc4)CC3)nn12 [AZD5153] + CC1(C)CCC(CN2CCN(c3ccc(C(=O)NS(=O)(=O)c4ccc(NCC5CCOCC5)c([N+](=O)[O-])c4)c(Oc4cnc5[nH]ccc5c4)c3)CC2)=C(c2ccc(Cl)cc2)C1 [Venetoclax] (first compound max 1 µM, 7x7, partner max 1 µM)" system="SCC-9 (Oral Cavity Carcinoma)" observed_value=-0.0478
molecule="CC1(C)CCC(CN2CCN(c3ccc(C(=O)NS(=O)(=O)c4ccc(NCC5CCOCC5)c([N+](=O)[O-])c4)c(Oc4cnc5[nH]ccc5c4)c3)CC2)=C(c2ccc(Cl)cc2)C1 [Venetoclax] + Cn1cnc2c(F)c(Nc3ccc(Br)cc3Cl)c(C(=O)NOCCO)cc21 [Selumetinib] (first compound max 1 µM, 7x7, partner max 3 µM)" system="SCC-9 (Oral Cavity Carcinoma)" observed_value=-0.0242
molecule="COc1cccc2c1C(=O)c1c(O)c3c(c(O)c1C2=O)C[C@@](O)(C(=O)CO)C[C@@H]3O[C@H]1C[C@H](N)[C@H](O)[C@H](C)O1 [Doxorubicin] + Cc1cc2ncnn2cc1Nc1ncc2c(n1)n(C1CCOCC1)c(=O)n2C [AZD7648] (first compound max 1 µM, 7x7, partner max 10 µM)" system="SCC-9 (Oral Cavity Carcinoma)" observed_value=-0.0027
molecule="CC1(C)CCC(CN2CCN(c3ccc(C(=O)NS(=O)(=O)c4ccc(NCC5CCOCC5)c([N+](=O)[O-])c4)c(Oc4cnc5[nH]ccc5c4)c3)CC2)=C(c2ccc(Cl)cc2)C1 [Venetoclax] + CN(C)CCCOc1ccc(-c2ccc3ncc4c(c3c2)n(C2CCOCC2)c(=O)n4C)cn1 [AZD0156] (first compound max 1 µM, 7x7, partner max 1 µM)" system="SCC-9 (Oral Cavity Carcinoma)" observed_value=-0.0351

The recorded Bliss excess for entry CN(CCO)CC[C@H](CSc1ccccc1)Nc1ccc(S(=O)(=O)NC(=O)c2ccc(N3CCC([C@@H](O)c4ccccc4-c4ccc(Cl)cc4)CC3)cc2)cc1S(=O)(=O)C(F)(F)F [AZD4320] + CCN(CCO)CCCOc1ccc2c(Nc3cc(CC(=O)Nc4cccc(F)c4)[nH]n3)ncnc2c1 [AZD2811] (first compound max 1 µM, 7x7, partner max 1 µM) equals -0.0115

According to the records, this molecule CN(CCO)CC[C@H](CSc1ccccc1)Nc1ccc(S(=O)(=O)NC(=O)c2ccc(N3CCC([C@@H](O)c4ccccc4-c4ccc(Cl)cc4)CC3)cc2)cc1S(=O)(=O)C(F)(F)F [AZD4320] + CC(=O)O[C@H]1C(=O)[C@@]2(C)[C@H]([C@H](OC(=O)c3ccccc3)[C@]3(O)C[C@H](OC(=O)[C@H](O)[C@@H](NC(=O)c4ccccc4)c4ccccc4)C(C)=C1C3(C)C)[C@]1(OC(C)=O)CO[C@@H]1C[C@@H]2O [Paclitaxel] (first compound max 1 µM, 7x7, partner max 3 µM) displays Bliss excess of 0.109
